Origin of measurements: patent US8476043B2

Biological target: human sEH (Homo sapiens)
Construct: made in house
Sequence (P34913 1-555): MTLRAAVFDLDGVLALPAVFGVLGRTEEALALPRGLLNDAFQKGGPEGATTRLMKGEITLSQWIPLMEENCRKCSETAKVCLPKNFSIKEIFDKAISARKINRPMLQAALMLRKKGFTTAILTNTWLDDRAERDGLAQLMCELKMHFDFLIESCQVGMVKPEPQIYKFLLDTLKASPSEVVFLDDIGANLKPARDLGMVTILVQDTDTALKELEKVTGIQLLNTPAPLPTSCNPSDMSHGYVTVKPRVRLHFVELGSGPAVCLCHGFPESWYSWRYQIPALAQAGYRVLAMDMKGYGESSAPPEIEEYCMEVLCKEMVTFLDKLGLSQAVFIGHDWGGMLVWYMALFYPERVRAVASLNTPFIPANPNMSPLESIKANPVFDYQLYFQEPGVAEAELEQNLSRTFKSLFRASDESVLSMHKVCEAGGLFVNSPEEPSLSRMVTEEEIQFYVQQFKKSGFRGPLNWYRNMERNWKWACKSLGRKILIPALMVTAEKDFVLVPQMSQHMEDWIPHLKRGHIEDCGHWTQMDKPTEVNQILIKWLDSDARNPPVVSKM
Assay: sEH inhibition, fluorescent assay with cyano(6-methoxy-naphthalen-2-yl)methyl trans-[(3-phenyloxiran-2-yl)methyl]carbonate as substrate
Type: biochemical
Settings: Table 18b; fluorescent assay with cyano(6-methoxy-naphthalen-2-yl)methyl trans-[(3-phenyloxiran-2-yl)methyl]carbonate as substrate; mean ± SD; read-out: IC50
Protocol: Recombinant mouse sEH and human sEH were produced in a baculovirus expression system and purified by affinity chromatography. […] Protein concentration was quantified by using the Pierce BCA assay using Fraction V bovine serum albumin as the calibrating standard. Enzyme activity was measured by monitoring the appearance of 6-methoxy-2-naphthaldehyde. Assays were performed in triplicate. […]
IC50 for assorted compounds
Write down the numeric answer in nM and omit the unit.

Consider the following illustrative entries.
> print(dat)
                                   compound        measurement.target  observed.value
1  CCCCCOC(=O)CCCNC(=O)C12CC3CC(CC(C3)C1)C2  human sEH (Homo sapiens)             390
2  O=C(Nc1cccc(C(=O)NCCCN2CCOCC2)c1)NC12CC3CC(CC(C3)C1)C2  human sEH (Homo sapiens)              60

Request: Item COCC(=O)c1ccc(OC2CCC(NC(=O)NC34CC5CC(CC(C5)C3)C4)CC2)cc1 (stereo not drawn) [Compound 1469] : provide IC50
Result: 10

* * *

molecular target: mouse sEH (Mus musculus); construct: made in house; experiment: sEH inhibition, spectrometric assay with racemic 4-nitrophenyl-trans-2,3-epoxy-3-phenylpropyl carbonate as substrate; assay type: biochemical; details: Table 8; read-out: IC50 Mouse sEH
Sequence (P34914 whole entry): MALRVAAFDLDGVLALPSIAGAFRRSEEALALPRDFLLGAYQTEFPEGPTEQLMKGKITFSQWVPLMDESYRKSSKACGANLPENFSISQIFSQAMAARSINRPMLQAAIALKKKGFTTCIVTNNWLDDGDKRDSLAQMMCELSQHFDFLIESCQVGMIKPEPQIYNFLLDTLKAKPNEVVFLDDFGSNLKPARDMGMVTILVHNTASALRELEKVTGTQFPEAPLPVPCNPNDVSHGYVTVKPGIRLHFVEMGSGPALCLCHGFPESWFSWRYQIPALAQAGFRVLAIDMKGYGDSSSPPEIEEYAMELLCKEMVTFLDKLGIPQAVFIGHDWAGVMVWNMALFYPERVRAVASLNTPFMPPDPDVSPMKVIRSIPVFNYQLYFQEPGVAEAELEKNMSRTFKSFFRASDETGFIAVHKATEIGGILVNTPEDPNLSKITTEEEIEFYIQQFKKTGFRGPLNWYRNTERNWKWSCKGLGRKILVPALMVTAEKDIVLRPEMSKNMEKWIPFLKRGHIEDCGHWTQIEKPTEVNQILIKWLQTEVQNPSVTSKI
Readout label: IC50 (nM)
Write down the numeric answer in nM and omit the unit.

Request: Item C#CCCOCCOCCCCCNC(=O)NC12CC3CC(CC(C3)C1)C2 [Compound 913] : provide IC50
Result: 50

* * *

pIC50 for assorted molecules
molecular target: human sEH (Homo sapiens, UniProt P34913); construct: made in house; assay: sEH inhibition, fluorescent assay with cyano(6-methoxy-naphthalen-2-yl)methyl trans-[(3-phenyloxiran-2-yl)methyl]carbonate as substrate; assay type: biochemical; settings: Table 18b; fluorescent assay with cyano(6-methoxy-naphthalen-2-yl)methyl trans-[(3-phenyloxiran-2-yl)methyl]carbonate as substrate; mean ± SD; read-out: IC50
Scale: pIC50 equals -log10([C]), with [C] in mol/L.

> print(dat)
                                   molecule                        measurement.target  observed.value
1  COCOc1cc(F)c(COC2CCC(NC(=O)NC34CC5CC(CC(C5)C3)C4)CC2)c(F)c1 (centres unmarked) [Compound 1105]  human sEH (Homo sapiens, UniProt P34913)            8.00
2  O=C(NC1CCC(C(=O)O)CC1)NC12CC3CC(CC(C3)C1)C2 (centres unmarked) [Compound 1173]  human sEH (Homo sapiens, UniProt P34913)            8.00
3  O=C(CC12CC3CC(CC(C3)C1)C2)Nc1ccc(O)cc1 [Compound 1454]  human sEH (Homo sapiens, UniProt P34913)            7.52
4  CC(C)(Oc1ccc(NC(=O)NC23CC4CC(CC(C4)C2)C3)cc1)C(=O)O [Compound 1442]  human sEH (Homo sapiens, UniProt P34913)            6.82

Request: Item CCC(=O)Oc1ccc(NC(=O)NC23CC4CC(CC(C4)C2)C3)cc1 [Compound 1221] : provide pIC50
Result: 8.00

* * *

Target: human sEH (Homo sapiens)
Construct: made in house
Experiment: sEH inhibition, fluorescent assay with cyano(6-methoxy-naphthalen-2-yl)methyl trans-[(3-phenyloxiran-2-yl)methyl]carbonate as substrate
Format: biochemical
Settings: Table 18b; fluorescent assay with cyano(6-methoxy-naphthalen-2-yl)methyl trans-[(3-phenyloxiran-2-yl)methyl]carbonate as substrate; mean ± SD; read-out: IC50
Protocol: Recombinant mouse sEH and human sEH were produced in a baculovirus expression system and purified by affinity chromatography. […] Protein concentration was quantified by using the Pierce BCA assay using Fraction V bovine serum albumin as the calibrating standard. Enzyme activity was measured by monitoring the appearance of 6-methoxy-2-naphthaldehyde. Assays were performed in triplicate. […]
pIC50 for assorted compounds
Scale: pIC50 equals -log10([C]), with [C] in mol/L.

> print(dat)
                                   compound  observed.value
1  O=C(Nc1ccc(I)cc1)NC1CCC(Oc2ccc(F)cc2)CC1 (centres unmarked) [Compound 1518]            8.00

Consider now this further compound.
Request: Item CCOCCOCCOCCOC(=O)CCCCCCCCCCCNC(=O)NC12CC3CC(CC(C3)C1)C2 [Compound 1067] : provide pIC50
Result: 8.00

* * *

Target: human sEH (Homo sapiens, UniProt P34913)
Construct: made in house
Sequence (P34913 1-555): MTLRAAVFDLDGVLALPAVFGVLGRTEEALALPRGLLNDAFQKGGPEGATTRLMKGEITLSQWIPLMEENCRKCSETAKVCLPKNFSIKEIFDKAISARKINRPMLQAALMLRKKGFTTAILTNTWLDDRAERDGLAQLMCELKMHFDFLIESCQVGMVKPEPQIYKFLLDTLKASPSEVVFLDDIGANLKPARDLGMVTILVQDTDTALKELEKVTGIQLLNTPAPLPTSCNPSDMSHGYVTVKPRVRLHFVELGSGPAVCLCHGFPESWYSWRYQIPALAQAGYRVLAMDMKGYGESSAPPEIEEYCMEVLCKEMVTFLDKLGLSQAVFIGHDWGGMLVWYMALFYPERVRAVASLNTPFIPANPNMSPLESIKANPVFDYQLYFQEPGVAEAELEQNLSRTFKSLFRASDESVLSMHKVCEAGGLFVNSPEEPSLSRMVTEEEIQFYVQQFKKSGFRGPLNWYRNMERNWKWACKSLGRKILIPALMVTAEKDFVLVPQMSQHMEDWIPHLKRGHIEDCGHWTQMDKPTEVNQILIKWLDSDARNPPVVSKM
Assay: sEH inhibition, spectrometric assay with racemic 4-nitrophenyl-trans-2,3-epoxy-3-phenylpropyl carbonate as substrate
Type: biochemical
Conditions: Table 3; mean ± SD; read-out: IC50 Human sEH
Readout label: pIC50
Scale: pIC50 equals -log10([C]), with [C] in mol/L.

> print(dat)
             structure.smiles.string  observed.value
1  CCCCCOC(=O)OCCNC(=O)Nc1cccc(Cl)c1            4.66

Request: Item `CCCCCNC(=O)OCCNC(=O)Nc1cccc(Cl)c1` : provide pIC50
Result: 4.74

Request: Item `CCCCCCC(=O)OCCNC(=O)Nc1cccc(Cl)c1` : provide pIC50
Result: 4.59

* * *

Target: human sEH (Homo sapiens, UniProt P34913)
Construct: made in house
Sequence (P34913 1-555): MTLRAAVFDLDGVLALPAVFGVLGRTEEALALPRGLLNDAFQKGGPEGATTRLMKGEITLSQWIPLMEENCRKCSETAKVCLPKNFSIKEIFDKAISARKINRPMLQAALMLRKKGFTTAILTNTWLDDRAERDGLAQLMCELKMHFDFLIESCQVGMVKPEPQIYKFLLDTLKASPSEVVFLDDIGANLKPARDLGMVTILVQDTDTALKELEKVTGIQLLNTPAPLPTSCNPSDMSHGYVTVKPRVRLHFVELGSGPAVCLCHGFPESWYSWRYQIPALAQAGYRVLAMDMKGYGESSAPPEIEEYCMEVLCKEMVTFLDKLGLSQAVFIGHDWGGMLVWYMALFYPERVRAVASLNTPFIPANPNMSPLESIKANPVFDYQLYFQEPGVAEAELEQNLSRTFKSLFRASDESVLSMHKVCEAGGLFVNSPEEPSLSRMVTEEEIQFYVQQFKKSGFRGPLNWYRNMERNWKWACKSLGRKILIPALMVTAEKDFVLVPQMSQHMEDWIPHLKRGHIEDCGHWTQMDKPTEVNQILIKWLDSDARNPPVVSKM
Assay: sEH inhibition, fluorescent assay with cyano(6-methoxy-naphthalen-2-yl)methyl trans-[(3-phenyloxiran-2-yl)methyl]carbonate as substrate
Format: biochemical
Details: Table 18b; fluorescent assay with cyano(6-methoxy-naphthalen-2-yl)methyl trans-[(3-phenyloxiran-2-yl)methyl]carbonate as substrate; mean ± SD; read-out: IC50
Readout label: IC50 (nM)
Write down the numeric answer in nM and omit the unit.

Consider the following illustrative entries.
> print(dat)
                                   molecule  observed.value
1  O=C(Nc1ccc(OCCN2CCOCC2)cc1)NC12CC3CC(CC(C3)C1)C2              10
2  CCOC(=O)C(F)(F)Oc1ccc(NC(=O)NC23CC4CC(CC(C4)C2)C3)cc1              10
3  CCOC(=O)c1ccc(C(OC(=O)C2CCCC(NC(=O)NC34CC5CC(CC(C5)C3)C4)C2)c2ccccc2)cc1 (centres unmarked)              10
4  O=C(Nc1ccc(C(F)(F)F)cc1)NC1CCC(Oc2ccc(F)cc2)CC1 (centres unmarked)              10
5  O=C(NC1CCCCCC1)NC1CCC(Oc2ccc(F)cc2)CC1 (centres unmarked)              10
6  O=C(O)CCCCCCCNC(=O)NC12CC3CC(CC(C3)C1)C2              10

Request: Return reported IC50 for target or system human sEH (Homo sapiens, UniProt P34913), item O=C(CC12CC3CC(CC(C3)C1)C2)NC1CCC(O)CC1 (centres unmarked) .
Result: 50
